Assay: NAL depletion under and without ultraviolet irradiation, HPLC with UV detection (281 nm)
Property: Difference in depletion (under light irradiation - without light irradiation) NAL (%); scope: individual compounds
Numeric only. Scale: %

Solved cases below.
compound	measured
CCO	−1.3
CC(C)O	−1.2
C=CC1CN2CCC1CC2C(O)c1ccnc2ccc(OC)cc12.Cl.O.O (stereo not drawn)	4.1

Look up Difference in depletion (under light irradiation - without light irradiation) NAL (%): COc1c2ccoc2cc2oc(=O)ccc12
8.2

* * *

Assay: NAL depletion under and without ultraviolet irradiation, HPLC with fluorescence detection (284 nm excitation, 333 nm fluorescence)
Details: without light irradiation, single compound
parameter.measured: NAL Depletion (%)
Give the quantity in %, number only.

molecule	parameter.measured	measured
Cc1ccc(C=C2C(=O)C3(C)CCC2C3(C)C)cc1 (racemic)	NAL Depletion (%)	0.0

Find the recorded NAL Depletion (%) belonging to CC1(C)SC2C(NC(=O)Cc3ccccc3)C(=O)N2C1C(=O)O (stereo not shown) and report it.
0.8

Follow-up item: O=C([O-])Cc1ccccc1Nc1c(Cl)cccc1Cl.[Na+]
0.0

What do you get for [Na+].[O-][n+]1ccccc1[S-] ?
0.0

Can you check CC(C)OC(=O)C(C)(C)Oc1ccc(C(=O)c2ccc(Cl)cc2)cc1 next?
0.0

Cool, now CC(O)CO (racemic)
0.0

Try this molecule too: COc1c2ccoc2cc2oc(=O)ccc12
0.2

Subsequent entry: CCO
0.0

* * *

Assay: NAC depletion under and without ultraviolet irradiation, HPLC with UV detection (281 nm)
Conditions: 2,000 μW/cm^2 for 1 hour then 25° C. 23 hours, test substance solution 1 mmol/L
parameter.measured: NAC Depletion (%) under light irradiation
Quick reminder: number only, in %, skip the unit.

Here is how some compounds turned out for NAC Depletion (%) under light irradiation.
compound	quantity.unit	measured
CC(O)CCO (stereo not drawn) [compound 46]	%	0.7
C=CC1CN2CCC1CC2C(O)c1ccnc2ccc(OC)cc12.Cl.O.O (stereo not drawn) [compound 15]	%	100.0
CC1(C)SC2C(NC(=O)Cc3ccccc3)C(=O)N2C1C(=O)O (stereo not drawn) [compound 44]	%	2.8
CCO [compound 50]	%	0.4
CC(C)O [compound 47]	%	1.7

# lookup: NAC Depletion (%) under light irradiation of O=C([O-])Cc1ccccc1Nc1c(Cl)cccc1Cl.[Na+] [compound 13]
100.0

Please do the same for Cc1ccc(C=C2C(=O)C3(C)CCC2C3(C)C)cc1 (racemic) [compound 39] as well.
4.3

Also COc1c2ccoc2cc2oc(=O)ccc12 [compound 31] ?
90.6

Request: CC(CN1c2ccccc2Sc2ccccc21)N(C)C.Cl (racemic) [compound 14]
89.5

Here is the next compound: CN(C)C1C(O)=C(C(N)=O)C(=O)C2(O)C(O)=C3C(=O)c4c(O)cccc4C(C)(O)C3CC12 (stereo not drawn) [compound 36]
44.6

// repeat for [Na+].[O-][n+]1ccccc1[S-] [compound 26] and report
100.0

Similarly, CC(C)OC(=O)C(C)(C)Oc1ccc(C(=O)c2ccc(Cl)cc2)cc1 [compound 38] ?
−1178.7

* * *

Reported Difference in depletion (under light irradiation - without light irradiation) NAC (%) by item:
Details: 24 h, 0.25 mmol/L, pH 8
Enter your answer as a number in %; do not include the unit.

// solved cases for Difference in depletion (under light irradiation - without light irradiation) NAC (%) follow
compound	measured
Cc1ccc2oc(=O)ccc2c1	95.8
CCOc1ccc2c(C)cc(=O)oc2c1	93.6
CCCCCCCCCCCCCCCCO	3.7
CC(=O)c1ccc2ccccc2c1	99.4

We now examine a further compound.
Report Difference in depletion (under light irradiation - without light irradiation) NAC (%) for Nc1ccc(S(N)(=O)=O)cc1 [compound 27, Sulfanilamide] please.
25.5

Provenance of the data: patent US20220364989A1
